- tested_on: Taq polymerase (Thermus aquaticus, UniProt P19821)
- Sequence (P19821 whole entry): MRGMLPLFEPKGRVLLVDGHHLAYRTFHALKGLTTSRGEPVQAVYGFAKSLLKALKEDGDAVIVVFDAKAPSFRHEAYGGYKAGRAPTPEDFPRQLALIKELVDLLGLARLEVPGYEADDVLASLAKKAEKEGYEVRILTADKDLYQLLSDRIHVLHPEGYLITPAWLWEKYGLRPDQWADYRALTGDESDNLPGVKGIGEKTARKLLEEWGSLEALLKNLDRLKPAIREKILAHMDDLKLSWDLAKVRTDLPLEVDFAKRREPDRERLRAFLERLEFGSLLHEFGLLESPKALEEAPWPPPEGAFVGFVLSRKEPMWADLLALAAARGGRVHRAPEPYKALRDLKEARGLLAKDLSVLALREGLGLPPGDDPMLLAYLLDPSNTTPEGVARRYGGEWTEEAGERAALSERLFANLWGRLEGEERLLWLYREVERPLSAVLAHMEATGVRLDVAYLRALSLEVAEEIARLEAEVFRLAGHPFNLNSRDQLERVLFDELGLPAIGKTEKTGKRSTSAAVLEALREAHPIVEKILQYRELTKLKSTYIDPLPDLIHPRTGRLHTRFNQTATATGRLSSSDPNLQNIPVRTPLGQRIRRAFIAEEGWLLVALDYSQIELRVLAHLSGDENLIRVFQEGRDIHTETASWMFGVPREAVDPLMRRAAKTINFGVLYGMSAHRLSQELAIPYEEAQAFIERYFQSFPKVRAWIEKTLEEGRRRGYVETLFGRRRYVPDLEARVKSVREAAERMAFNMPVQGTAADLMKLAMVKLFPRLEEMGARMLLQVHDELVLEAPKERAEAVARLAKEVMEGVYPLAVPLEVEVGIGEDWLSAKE
- test_protocol: biochemical
readout_type: pKd
Remember the convention: pKd equals -log10 of concentration in molar.

Please give the measured pKd for this compound: O=C(O)CN(CCN(CC(=O)O)CC(=O)O)CC(=O)O
7.33

* * *

- condition_notes: apparent, EDTA titrated with Mg^2+, pH 7.5, 293 K
readout_type: Kd (µM)
# unit: µM | format: bare number

For the compound shown here, O=C(O)CN(CCN(CC(=O)O)CC(=O)O)CC(=O)O [EDTA, ethylene diamine tetraacetic acid] , give the reported Kd.
2.53

* * *

- tested_on: EcMutT (Escherichia coli, UniProt P08337)
- Sequence (P08337 whole entry): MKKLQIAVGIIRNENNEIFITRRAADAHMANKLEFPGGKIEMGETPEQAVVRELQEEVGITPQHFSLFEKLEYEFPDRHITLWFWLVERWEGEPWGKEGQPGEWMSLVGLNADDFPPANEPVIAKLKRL
readout_type: Kd
Answer shape: numeric part, then the unit.

Find the recorded Kd belonging to O=C(O)CN(CCN(CC(=O)O)CC(=O)O)CC(=O)O and report it.
550 nM
